This section presents sequences with their documented PBM binding z-score values.
Tested on: LXRa homodimer (NR concentration 270 nM)
procedure.details: PBM binding z-score (relative to random genomic background probes); higher = stronger binding; sequences stand for … in GC…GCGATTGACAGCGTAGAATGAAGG
Lab note: record just the number, no unit beside it.

Known PBM binding z-score results, listed for orientation:
sequence.string: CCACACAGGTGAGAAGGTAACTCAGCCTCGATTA
PBM binding z-score: 0.368
//
sequence.string: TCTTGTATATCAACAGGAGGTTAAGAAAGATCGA
PBM binding z-score: 0.536
//
sequence.string: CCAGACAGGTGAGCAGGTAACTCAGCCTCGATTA
PBM binding z-score: -0.134
//
sequence.string: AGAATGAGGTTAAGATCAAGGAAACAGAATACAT
PBM binding z-score: 0.0429
//
sequence.string: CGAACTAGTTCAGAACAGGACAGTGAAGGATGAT
PBM binding z-score: -0.0634

For `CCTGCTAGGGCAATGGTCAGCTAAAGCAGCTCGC` , what is its reported PBM binding z-score?
-0.651

----------
Test system: LXRa:RXRa (NR concentration 270 nM, RXRa partner concentration 90 nM)
procedure.details: PBM binding z-score (relative to random genomic background probes); higher = stronger binding; sequences stand for … in GC…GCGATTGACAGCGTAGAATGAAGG
This section presents sequences with their documented PBM binding z-score values.
Lab note: record just the number, no unit beside it.

Known PBM binding z-score results, listed for orientation:
sequence.string: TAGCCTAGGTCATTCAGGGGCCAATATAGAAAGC
PBM binding z-score: 4.59

sequence.string: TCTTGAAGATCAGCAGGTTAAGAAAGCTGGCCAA
PBM binding z-score: 0.582

sequence.string: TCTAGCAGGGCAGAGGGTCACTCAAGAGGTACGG
PBM binding z-score: 1.06

For `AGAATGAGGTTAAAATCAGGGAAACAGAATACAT` , what is its reported PBM binding z-score?
2.59

For `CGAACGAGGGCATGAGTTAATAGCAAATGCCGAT` , what is its reported PBM binding z-score?
0.206

For `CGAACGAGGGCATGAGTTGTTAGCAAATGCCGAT` , what is its reported PBM binding z-score?
0.0861

For `CGTCCAAGGTGAGCAGGTCAGTGAAAGCGACGTG` , what is its reported PBM binding z-score?
0.118

For `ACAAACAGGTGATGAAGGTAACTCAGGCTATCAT` , what is its reported PBM binding z-score?
0.355

For `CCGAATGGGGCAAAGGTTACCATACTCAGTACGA` , what is its reported PBM binding z-score?
1.85

----------
Test system: RARg:RXRa (NR concentration 270 nM, RXRa partner concentration 90 nM)
procedure.details: PBM binding z-score (relative to random genomic background probes); higher = stronger binding; sequences stand for … in GC…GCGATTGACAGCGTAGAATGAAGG
measurement.label: PBM binding z-score
Lab note: record just the number, no unit beside it.

Known PBM binding z-score results, listed for orientation:
sequence.string: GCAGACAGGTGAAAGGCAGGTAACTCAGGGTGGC
PBM binding z-score: 0.314
--
sequence.string: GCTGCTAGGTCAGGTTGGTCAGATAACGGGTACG
PBM binding z-score: 2.71
--
sequence.string: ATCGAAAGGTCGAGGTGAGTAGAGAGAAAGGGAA
PBM binding z-score: 4.37
--
sequence.string: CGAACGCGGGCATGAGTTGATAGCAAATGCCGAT
PBM binding z-score: -0.206
--
sequence.string: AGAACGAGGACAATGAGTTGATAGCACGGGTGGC
PBM binding z-score: 0.444
--
sequence.string: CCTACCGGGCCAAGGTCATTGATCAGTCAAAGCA
PBM binding z-score: 3.89
--
sequence.string: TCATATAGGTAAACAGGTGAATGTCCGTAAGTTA
PBM binding z-score: 0.347
--
sequence.string: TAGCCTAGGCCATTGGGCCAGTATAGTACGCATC
PBM binding z-score: -0.137

For RARg:RXRa (NR concentration 270 nM, RXRa partner concentration 90 nM), provide PBM binding z-score of `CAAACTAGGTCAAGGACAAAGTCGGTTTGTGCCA` please.
3.97

For RARg:RXRa (NR concentration 270 nM, RXRa partner concentration 90 nM), provide PBM binding z-score of `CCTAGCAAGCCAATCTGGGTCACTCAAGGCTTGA` please.
0.58

For RARg:RXRa (NR concentration 270 nM, RXRa partner concentration 90 nM), provide PBM binding z-score of `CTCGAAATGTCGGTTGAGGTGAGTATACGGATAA` please.
0.0589

For RARg:RXRa (NR concentration 270 nM, RXRa partner concentration 90 nM), provide PBM binding z-score of `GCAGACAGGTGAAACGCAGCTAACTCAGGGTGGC` please.
-0.209

For RARg:RXRa (NR concentration 270 nM, RXRa partner concentration 90 nM), provide PBM binding z-score of `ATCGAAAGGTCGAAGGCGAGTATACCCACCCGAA` please.
3.79

For RARg:RXRa (NR concentration 270 nM, RXRa partner concentration 90 nM), provide PBM binding z-score of `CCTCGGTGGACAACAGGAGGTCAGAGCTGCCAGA` please.
2.06

----------
Test system: PXR homodimer (NR concentration 270 nM)
procedure.details: PBM binding z-score (relative to random genomic background probes); higher = stronger binding; sequences stand for … in GC…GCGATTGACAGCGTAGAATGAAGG
This section presents sequences with their documented PBM binding z-score values.
Lab note: record just the number, no unit beside it.

Known PBM binding z-score results, listed for orientation:
sequence.string: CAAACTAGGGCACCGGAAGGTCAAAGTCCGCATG
quantitative.result: 0.773
--
sequence.string: CCTTACGGGTCACTGCCAGGTTATAGCATTTGGA
quantitative.result: 0.376
--
sequence.string: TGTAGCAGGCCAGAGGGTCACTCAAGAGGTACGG
quantitative.result: -0.159
--
sequence.string: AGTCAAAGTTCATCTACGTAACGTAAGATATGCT
quantitative.result: 4.87
--
sequence.string: TAGCCTAGGTCAGAACGGGCCAGTATACGCTATA
quantitative.result: -0.462
--
sequence.string: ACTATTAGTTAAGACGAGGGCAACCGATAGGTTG
quantitative.result: 0.645
--
sequence.string: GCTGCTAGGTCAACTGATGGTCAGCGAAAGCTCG
quantitative.result: -0.425
--
sequence.string: TCTAGTTGGTCAAACGTCACACACTCGAAATGCG
quantitative.result: 0.241
--
sequence.string: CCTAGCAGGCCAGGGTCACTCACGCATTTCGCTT
quantitative.result: -0.101
--
sequence.string: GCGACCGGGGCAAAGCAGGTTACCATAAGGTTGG
quantitative.result: -0.433

For `CCGAGTAGGTTATGGGTCATTCAGGCAACGGTGA` , what is its reported PBM binding z-score?
0.442

For `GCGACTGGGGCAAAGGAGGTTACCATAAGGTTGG` , what is its reported PBM binding z-score?
-0.167

For `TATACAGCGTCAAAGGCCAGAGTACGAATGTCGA` , what is its reported PBM binding z-score?
-0.0905

----------
Test system: LXRb homodimer (NR concentration 270 nM)
procedure.details: PBM binding z-score (relative to random genomic background probes); higher = stronger binding; sequences stand for … in GC…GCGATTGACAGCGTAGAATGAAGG
// no strictly below -0.2 in PBM binding z-score; yes otherwise

sequence.string: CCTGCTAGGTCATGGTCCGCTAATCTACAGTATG
classification: no

Test whether the sequence `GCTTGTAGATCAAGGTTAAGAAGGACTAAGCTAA` records PBM binding z-score of -0.2 or higher.
no

Test whether the sequence `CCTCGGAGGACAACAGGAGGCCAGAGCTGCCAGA` records PBM binding z-score of -0.2 or higher.
no

Test whether the sequence `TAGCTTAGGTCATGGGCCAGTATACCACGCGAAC` records PBM binding z-score of -0.2 or higher.
yes

Test whether the sequence `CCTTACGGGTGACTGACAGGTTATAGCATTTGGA` records PBM binding z-score of -0.2 or higher.
no

Test whether the sequence `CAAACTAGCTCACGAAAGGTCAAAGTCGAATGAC` records PBM binding z-score of -0.2 or higher.
yes

Test whether the sequence `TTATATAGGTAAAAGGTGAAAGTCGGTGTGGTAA` records PBM binding z-score of -0.2 or higher.
yes

Test whether the sequence `CGTCCAAGGTCAATGCTAGGTCAGAGAAAGCATT` records PBM binding z-score of -0.2 or higher.
yes
